Experiment: toxicity to human HepG2 hepatoma cells – cell-based, plate reader, dry powder samples, cytotoxicity control, dose response (AID 1159569)
Details: HepG2 cytotoxicity counterscreen; series mostly up to 50 µM
Entries with a potency or affinity are not part of this list. Results filed as inconclusive are left out. Active and inactive are the calls of the source. How the calls were made is not given here.
measuredProperty: outcome

COc1ccc(C#Cc2ccc3c(c2)O[C@H](CN(C)C(=O)Nc2cccc(OC)c2)[C@H](C)CN([C@@H](C)CO)S3(=O)=O)cc1 :: inactive
COc1cccc(-c2cccc(-c3nc(C(=O)NCc4ccc(Oc5ccccc5)cc4)cc4c3[C@@H](CCO)N(S(=O)C(C)(C)C)C4)c2)c1 (stereo partly drawn) :: inactive
C[C@H](CO)N1C[C@H](C)[C@H](CN(C)S(=O)(=O)c2ccc([N+](=O)[O-])cc2)OCc2ccccc2-c2c(n(C)c3ccccc23)C1=O :: inactive
